Reference for the values: paper PMC11292009

system: lysozyme (Lyo); assay: Intact protein MS photoaffinity labeling screen, lysozyme; format: binding; conditions: intact protein MS after 10 min irradiation
quantity_name: MS labeling percentage, Lyo

Known results for compounds:
compound="CC1(CCC(=O)NCCc2nc3ccccc3[nH]2)N=N1 [PhP031, N1=NC1(C)CCC(=O)NCCc(n2)[nH]c(c23)cccc3]" quantity_name="MS labeling percentage, Lyo" measurement=0%
compound=CC1(CCC(=O)Nc2nc(-c3c[nH]c(C(N)=O)c3)cs2)N=N1 quantity_name="MS labeling percentage, Lyo" measurement=0%
compound=CC1(CCC(=O)N[C@@H](Cc2cccc(F)c2)CN2C(=O)c3ccccc3C2=O)N=N1 quantity_name="MS labeling percentage, Lyo" measurement=0.3%
compound="CC1(CCC(=O)NC2CCCN(c3ncc[nH]c3=O)C2)N=N1 (centres unmarked) [PhP029, N1=NC1(C)CCC(=O)NC2CCCN(C2)c3ncc[nH]c3=O]" quantity_name="MS labeling percentage, Lyo" measurement=0%
compound=CN1C(=O)COc2ccc(NC(=O)CCC3(C)N=N3)cc21 quantity_name="MS labeling percentage, Lyo" measurement=1.8%
compound=CC1(CCC(=O)NCc2ccc(N3CCC(CO)CC3)cc2)N=N1 quantity_name="MS labeling percentage, Lyo" measurement=0%

Q: State the recorded MS labeling percentage, Lyo for this entry: CC1(CCC(=O)Nc2sc3c(c2C(N)=O)CCC(C(C)(C)C)C3)N=N1 (centres unmarked)
Ans: 0%

---

test system: MOLM-13 cells; assay: CellTiter-Blue cell viability assay, MOLM-13; type: cell-based; conditions: Homo sapiens, MOLM-13, 72 h
quantity_name: pIC50
Field pIC50 (float): negative decimal logarithm of the concentration in molar.

given_smiles=Cc1[nH]c2ccccc2c1SCCNC(=O)CCC1(C)N=N1 measurement=4.00

In the following, a different compound is considered.
Q: Which pIC50 is listed for "CC1(CCC(=O)NCCc2csc(-c3ccccc3)n2)N=N1" ?
Ans: 4.17

---

tested on: myoglobin (Myo); test: Intact protein MS photoaffinity labeling screen, myoglobin; assay type: binding; conditions: intact protein MS after 10 min irradiation
quantity_name: MS labeling percentage, Myo (%)
Supply the numeric figure in %, leaving out any unit text.

Here is how some compounds turned out for MS labeling percentage, Myo.
compound="COc1ccc(CNC(=O)CCC2(C)N=N2)cn1 [PhP039, COc1ccc(cn1)CNC(=O)CCC2(C)N=N2]" quantity_name="MS labeling percentage, Myo" measurement=0.3
compound="Cc1cccc2nc(CNC(=O)CCC3(C)N=N3)[nH]c12 [PhP023]" quantity_name="MS labeling percentage, Myo" measurement=0.2
compound="CC1(CCC(=O)NCc2ccccc2NS(C)(=O)=O)N=N1 [PhP025, CS(=O)(=O)Nc1ccccc1CNC(=O)CCC2(C)N=N2]" quantity_name="MS labeling percentage, Myo" measurement=0.1
compound="CC1(CCC(=O)NCCCc2nc3ccccc3[nH]2)N=N1 [PhP069, N1=NC1(C)CCC(=O)NCCCc(n2)[nH]c(c23)cccc3]" quantity_name="MS labeling percentage, Myo" measurement=0.2
compound="CC1(CCC(=O)Nc2ccc(-c3ncccc3O)cc2)N=N1 [PhP060, N1=NC1(C)CCC(=O)Nc2ccc(cc2)-c3ncccc3O]" quantity_name="MS labeling percentage, Myo" measurement=24.9
compound="CC1(CCC(=O)NCc2nnc3n2CCC3)N=N1 [PhP083, N1=NC1(C)CCC(=O)NCc(nn2)n(c23)CCC3]" quantity_name="MS labeling percentage, Myo" measurement=0.1

Q: Which MS labeling percentage, Myo is reported with myoglobin (Myo) for this entry: CC1(CCC(=O)NCCc2c[nH]c3ccc(OCc4ccccc4)cc23)N=N1 [PhP081] ?
Ans: 0.3

Q: Next: CC1CN(Cc2ccccc2NC(=O)CCC2(C)N=N2)CC(C)O1 (stereo not shown) [PhP078, CC1CN(CC(O1)C)Cc2ccccc2NC(=O)CCC3(C)N=N3]
Ans: 0.2

Q: Another compound to look at: CC1(CCC(=O)Nc2ccc3oc(CN4CCCC4)nc3c2)N=N1 [PhP089, N1=NC1(C)CCC(=O)Nc2ccc3oc(CN4CCCC4)nc3c2]
Ans: 0.1

Q: Now the same for CC1(CCC(=O)NCc2ccc(CNC(=O)OC(C)(C)C)cc2)N=N1 [PhP099]
Ans: 4.3

Q: Another compound to look at: CC1(CCC(=O)NC2CCCN(c3ncc[nH]c3=O)C2)N=N1 (stereo not shown) [PhP029, N1=NC1(C)CCC(=O)NC2CCCN(C2)c3ncc[nH]c3=O]
Ans: 0.1
